Taken from patent US5830868A.

# IC50 annotations
# Measurement Target: rat brain farnesyl protein transferase (PFT) (Rattus norvegicus, UniProt Q02293+Q04631)
# Construct: 40-fold purified rat brain farnesyl protein transferase; from tissue; host or cells: rat brain
# Sequence (Q02293 whole entry, one chain of several): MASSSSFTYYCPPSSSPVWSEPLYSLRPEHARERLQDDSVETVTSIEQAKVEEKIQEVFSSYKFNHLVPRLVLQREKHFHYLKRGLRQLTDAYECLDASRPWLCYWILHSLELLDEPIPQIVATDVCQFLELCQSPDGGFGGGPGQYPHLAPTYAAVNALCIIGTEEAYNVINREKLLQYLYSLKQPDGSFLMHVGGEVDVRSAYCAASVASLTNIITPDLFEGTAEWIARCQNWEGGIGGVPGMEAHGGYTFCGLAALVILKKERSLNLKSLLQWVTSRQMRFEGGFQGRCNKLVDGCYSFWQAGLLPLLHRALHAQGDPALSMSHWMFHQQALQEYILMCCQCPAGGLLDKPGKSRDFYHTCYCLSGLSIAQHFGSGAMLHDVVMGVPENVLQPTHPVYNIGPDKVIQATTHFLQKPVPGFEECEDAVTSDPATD
# Method Description: PFT inhibitory activity assay (radiolabeled farnesyl pyrophosphate, biotinyl peptide, streptavidin beads)
# Assay type: biochemical
# Assay Setup: 40-fold purified rat brain enzyme; 0.12 μM [3H]FPP, 0.1 μM biotinyl-Ahe-Tyr-Lys-Cys-Val-Ile-Met; 37° C., 30 minutes; read-out: IC50 (μM) against PFT
Square brackets hold non-standard residues; d marks the D form. Peptide text beside a SMILES is read from it. * marks the point of attachment. Cbz = O=C(OCc1ccccc1)*; Bn = c1ccc(C*)cc1
Numeric only. Scale: µM

Study these solved cases before continuing.
Compound	Endpoint Result
O=C(CCc1ccccc1)N[C@H](Cc1c[nH]cn1)C(=O)N[C@@H](Cc1ccc(OCc2ccccc2)cc1)C(=O)NCCOCc1ccccc1	1.9
C[C@@](Cc1ccc(OCc2ccccc2)cc1)(NC(=O)[C@@H](Cc1c[nH]cn1)NC(=O)OCc1ccccc1)C(=O)NCCOCc1ccccc1	0.37

Now look at this entry.
Item under review: CCNC(=O)[C@H](COCc1ccccc1)NC(=O)[C@H](Cc1ccc(OCc2ccccc2)cc1)NC(=O)[C@@H](Cc1c[nH]cn1)NC(=O)OCc1ccccc1 [Example 12] (Cbz-[dH]-Tyr(Bn)-Ser(Bn)-NHEt) . Reported IC50?
0.028
